System: HCT-8
Assay: Ability to inhibit the growth of human colon tumor HCT-8 cells in vitro.
Format: functional, cell-based
Readout Label: pIC50
FYI, pIC50 means -log10 of a concentration in mol per litre.

Would you please look over these solved cases?
[[record]]
compound_smiles = "CNc1cc(NC(=O)OC)ccc1Nc1c2ccc(Br)cc2nc2c(C)cccc12"
readout_label = "pIC50"
recorded_result = 6.64

[[record]]
compound_smiles = "CNc1cc(NC(=O)OC)ccc1Nc1c2ccccc2nc2c(Cl)cccc12"
readout_label = "pIC50"
recorded_result = 5.35

[[record]]
compound_smiles = "CNc1cc(NC(=O)OC)ccc1Nc1c2ccc(F)cc2nc2c(C)cccc12"
readout_label = "pIC50"
recorded_result = 6.21

[[record]]
compound_smiles = "CNC(=O)c1cccc2c(Nc3ccc(NC(=O)OC)cc3NC)c3ccccc3nc12"
readout_label = "pIC50"
recorded_result = 5.56

[[record]]
compound_smiles = "CNc1cc(NC(=O)OC)ccc1Nc1c2ccccc2nc2ccccc12"
readout_label = "pIC50"
recorded_result = 6.54


Noted for CNc1cc(NC(=O)OC)ccc1Nc1c2ccc(Cl)cc2nc2c(C)cccc12 : its pIC50 reads 6.48

Noted for CNc1cc(NC(=O)OC)ccc1Nc1c2ccccc2nc2cc(F)ccc12 : its pIC50 reads 6.38

Noted for CNc1cc(NC(=O)OC)ccc1Nc1c2ccc(F)cc2nc2c(OC)cccc12 : its pIC50 reads 5.80

Noted for CNc1cc(NC(=O)OC)ccc1Nc1c2ccccc2nc2c(C(N)=O)cccc12 : its pIC50 reads 5.44

Noted for CNc1cc(NC(=O)OC)ccc1Nc1c2ccc(C)cc2nc2c(C)cccc12 : its pIC50 reads 7.10

###

Test: Lipophilicity (Rm).
Assay type: physicochemical
Mark t only when Rm stays strictly below 0.5. Values equal to the cut-off are f.

Solved entries:
[[record]]
compound_smiles = "CNc1cc(NC(=O)OC)ccc1Nc1c2ccccc2nc2c(F)cccc12"
assigned_label = "t"

[[record]]
compound_smiles = "COc1cc(NS(C)(=O)=O)ccc1Nc1c2ccccc2nc2ccccc12"
assigned_label = "t"

[[record]]
compound_smiles = "COc1cc(NP(=O)(OC)OC)ccc1Nc1c2ccccc2nc2ccccc12"
assigned_label = "t"

[[record]]
compound_smiles = "CNc1cc(NC(=O)OC)ccc1Nc1c2ccc(C)cc2nc2c(OC)cccc12"
assigned_label = "f"

[[record]]
compound_smiles = "CNC(=O)c1cccc2c(Nc3ccc(NC(=O)OC)cc3NC)c3ccccc3nc12"
assigned_label = "t"

[[record]]
compound_smiles = "CN(C)c1cc(NS(C)(=O)=O)ccc1Nc1c2ccccc2nc2ccccc12"
assigned_label = "t"


Req: Dear colleague, could you confirm whether Rm of CNc1cc(NC(=O)OC)ccc1Nc1c2ccccc2nc2cc(I)ccc12 falls below 0.5? Thanks.
Resp: f

Req: Dear colleague, could you confirm whether Rm of CC(=O)Nc1ccc(Nc2c3ccccc3nc3ccccc23)c(N(C)C)c1 falls below 0.5? Thanks.
Resp: f

Req: Dear colleague, could you confirm whether Rm of CNc1cc(NC(=O)OC)ccc1Nc1c2ccccc2nc2cc([N+](=O)[O-])ccc12 falls below 0.5? Thanks.
Resp: t

Req: Dear colleague, could you confirm whether Rm of CNc1cc(NC(=O)OC)ccc1Nc1c2ccc(F)cc2nc2c(OC)cccc12 falls below 0.5? Thanks.
Resp: t

Req: Dear colleague, could you confirm whether Rm of CNc1cc(NC(=O)OC)ccc1Nc1c2ccccc2nc2c(Cl)cccc12 falls below 0.5? Thanks.
Resp: t

Req: Dear colleague, could you confirm whether Rm of CNc1cc(NC(=O)OC)ccc1Nc1c2ccccc2nc2cc(Cl)ccc12 falls below 0.5? Thanks.
Resp: f

Req: Dear colleague, could you confirm whether Rm of COP(=O)(Nc1ccc(Nc2c3ccccc3nc3ccccc23)c(N(C)C)c1)OC falls below 0.5? Thanks.
Resp: t

Req: Dear colleague, could you confirm whether Rm of CNc1cc(NC(=O)OC)ccc1Nc1c2ccccc2nc2cc(C)ccc12 falls below 0.5? Thanks.
Resp: f

Req: Dear colleague, could you confirm whether Rm of CNc1cc(NC(=O)OC)ccc1Nc1c2ccccc2nc2c(OC)cccc12 falls below 0.5? Thanks.
Resp: t

Req: Dear colleague, could you confirm whether Rm of CNc1cc(NS(C)(=O)=O)ccc1Nc1c2ccccc2nc2ccccc12 falls below 0.5? Thanks.
Resp: t

Req: Dear colleague, could you confirm whether Rm of CNc1cc(NC(=O)OC)ccc1Nc1c2ccccc2nc2ccc(C)cc12 falls below 0.5? Thanks.
Resp: f
